Tested on: COLO-680N (Esophageal Squamous Cell Carcinoma);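 also: after 72 h of two-drug dosing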
experiment.description: Bliss excess, mean over the matrix (fraction); higher = more synergy
parameter.measured: Bliss excess

Completed entries (count: 2):
Would you mind telling me what Bliss excess value was observed for COc1cccc(OCCCN)c1-c1cc(Nc2cnc(C#N)cn2)n[nH]1 [Prexasertib] + CCc1c2c(nc3ccc(O)cc13)-c1cc3c(c(=O)n1C2)COC(=O)[C@]3(O)CC [SN-38] (first compound max 1 µM, 7x7, partner max 0.3 µM) ?
0.0609

Could you tell me which Bliss excess is on file for COc1nnc2ccc(N3CCC(c4ccc(OCCN5CCN(C)C(=O)[C@H]5C)cc4)CC3)nn12 [AZD5153] + C[C@@H]1COCCN1C2=NC(=NC(=C2)C3(CC3)[S@](=N)(=O)C)C4=C5C=CNC5=NC=C4 [AZD6738] (first compound max 1 µM, 7x7, partner max 10 µM) ?
0.0046

# next molecule below
What does the data say about its Bliss excess? Entry: COc1cccc(OCCCN)c1-c1cc(Nc2cnc(C#N)cn2)n[nH]1 [Prexasertib] + Cc1cc2ncnn2cc1Nc1ncc2c(n1)n(C1CCOCC1)c(=O)n2C [AZD7648] (first compound max 1 µM, 7x7, partner max 10 µM)
-0.0491
